Below is a list of entries, each paired with its recorded Octet binding response value.
- target: T1, Unprocessed hMPV PreF trimer (human metapneumovirus, strain B2)
- T1 construct: also called Unprocessed hMPV WT PreF trimer; unprocessed hMPV PreF trimeric antigen
- test name: BLI, mAb on anti-human Fc sensor

binder	Octet binding response
M4B03 (antibody, V domains shown, IgG) VH: QVQLVQSGAEVKKPGASVKVSCKASGYIFSNYRMHWVRQAPGQRLEWMGWITAGSGNTRYSEQFQGRVAFTSDTDATTVSMELSGLRFEDTAVYFCAREYNWNDAFPYWGQGTLVIVSS VL: SYVLTQPPSVSVAPGQTARIPCGGNNIGSKSVHWYQQKSGRAPVLVVYDDSDRPPGIPDRFSGSNSGNTATLTINKIEAGDEADYYCHVSDDNSDHVFFGGGTQLTVL	0.324 nm
M3C06 (antibody, V domains shown, IgG) VH: QVQLVQSGAEVKKPGSSVKVSCKAYGGTLSNYAISWVRQAPGQGLHWMGRIIPVMNVANYADNFQGRVTITADKSTSTAYMELSSLRSEDAAIYYCATARGLGSLEGGDAFDVWGQGTMLTVSS VL: DIVMTQSPDSVAVSLGERATISCKSSLSLLYSSNNKNYLVWYQQKPGQPPKLLFYWASTRESGVPDRFSASGSGTDFTLTISSLQAEDVAVYYCQQYYSTPITFGQGTRLEIR	0.208 nm
M3E04 (antibody, V domains shown, IgG) VH: EVQLVESGGGLVKPGGSLRLSCAGSGFTFSSYSMNWVRQAPGKGLEWVSSISASSSYIYYADSLKGRFTISRDNAKNSLYLQMNSLRAEDTAVYYCARANYGSGNYYNPKWFDPWGQGTLVTVSS VL: QSVLTQPPSVSGAPGQRVTISCTGSSSNIGAGYDVHWYQQFPGTAPKVLIYGNNNRPSGVPDRFSGSKSGTSASLAISGLQAEDEADYYCQSYDSSLSGSIFGGGTKLTVL	0.3 nm
M2A06 (antibody, V domains shown, IgG) VH: QVQLVQSGAEVKKPGASVKISCKASGYSFSNYYIQWVRQAPGQGLEWLGIINPSGGSTDYAQKFEGRVSMTRDTSTNTVYMEMSSLRSEDTASYYCVRSLANGSGSPWGQGTLVIVSS VL: DIQMTQSPSTLSASVGDRVTITCRASQSISSRLAWYQQKPGKAPNLLLYDASRSESGVPSRFSGSGSGTEFTLTISSLQPDDVATYYCQHYSIYSRWTFGQGTKVEIK	0.237 nm
M4C08 (antibody, V domains shown, IgG) VH: EVQLVESGGTLVQPGGSLRLSCAASGFKFNAFSMNWVRQAPGKGLEWVSYIDSRSNIIYYADSVKGRFTISRDNAKNSLYLRMSSLRDEDTAVYYCAKALCVVNYDFWSGLLGCAMDVWGQGTTVTVSS VL: QSVLTQPPSVSGAPGQRVTISCTGNTSNIGAGFDVHWYQQVPGTAPKLLIYANTDRPSGVPDRFSASKSGTSASLAITGLQAEDEADYYCQTYDRSLSGSTVFGGGTKLTVL	0.222 nm

Every entry's value here was drawn from patent US20240327502A1.
